- systemTested: human wild-type CFTR (Homo sapiens)
- Sequence (P13569 whole entry): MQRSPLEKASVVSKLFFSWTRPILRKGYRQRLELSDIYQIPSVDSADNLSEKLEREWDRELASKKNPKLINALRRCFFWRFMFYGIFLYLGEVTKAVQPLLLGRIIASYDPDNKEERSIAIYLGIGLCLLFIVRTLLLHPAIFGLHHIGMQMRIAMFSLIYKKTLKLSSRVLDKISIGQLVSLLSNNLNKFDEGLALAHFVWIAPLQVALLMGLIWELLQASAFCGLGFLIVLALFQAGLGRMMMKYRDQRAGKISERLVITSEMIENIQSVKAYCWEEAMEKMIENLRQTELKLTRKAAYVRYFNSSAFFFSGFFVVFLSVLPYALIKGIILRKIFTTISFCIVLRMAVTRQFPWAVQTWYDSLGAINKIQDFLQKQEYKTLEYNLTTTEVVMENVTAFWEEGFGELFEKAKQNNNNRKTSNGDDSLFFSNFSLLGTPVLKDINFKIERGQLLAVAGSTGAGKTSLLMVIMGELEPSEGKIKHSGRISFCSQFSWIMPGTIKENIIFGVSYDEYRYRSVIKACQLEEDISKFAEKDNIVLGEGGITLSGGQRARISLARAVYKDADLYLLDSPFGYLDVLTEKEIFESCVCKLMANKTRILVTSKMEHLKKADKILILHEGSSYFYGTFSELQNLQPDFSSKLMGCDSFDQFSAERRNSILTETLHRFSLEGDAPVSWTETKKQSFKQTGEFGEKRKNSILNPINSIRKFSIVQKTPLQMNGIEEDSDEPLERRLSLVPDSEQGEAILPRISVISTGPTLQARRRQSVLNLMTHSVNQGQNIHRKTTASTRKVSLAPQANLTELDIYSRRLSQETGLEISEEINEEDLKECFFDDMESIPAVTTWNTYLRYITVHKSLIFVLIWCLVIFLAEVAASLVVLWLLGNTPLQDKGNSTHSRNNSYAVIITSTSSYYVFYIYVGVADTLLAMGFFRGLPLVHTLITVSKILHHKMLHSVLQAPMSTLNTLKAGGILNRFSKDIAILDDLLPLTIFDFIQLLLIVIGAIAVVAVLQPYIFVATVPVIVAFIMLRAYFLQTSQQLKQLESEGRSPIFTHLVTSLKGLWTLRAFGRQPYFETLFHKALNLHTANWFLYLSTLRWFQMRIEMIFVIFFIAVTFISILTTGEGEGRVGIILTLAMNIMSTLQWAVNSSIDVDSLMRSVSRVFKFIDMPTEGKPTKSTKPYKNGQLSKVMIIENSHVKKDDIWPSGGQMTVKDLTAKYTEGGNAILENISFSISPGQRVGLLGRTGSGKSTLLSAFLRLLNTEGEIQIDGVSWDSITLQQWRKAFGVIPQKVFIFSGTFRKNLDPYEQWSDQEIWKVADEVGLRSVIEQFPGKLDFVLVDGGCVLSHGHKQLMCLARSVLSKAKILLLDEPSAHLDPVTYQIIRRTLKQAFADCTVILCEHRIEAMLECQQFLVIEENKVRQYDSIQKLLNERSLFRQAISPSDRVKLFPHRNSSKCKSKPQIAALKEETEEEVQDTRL
- runDescription: Cell-based plate reader (YFP iodide influx) assay of CFTR function
- Parameters: expressed in transfected cells; host or cells: Fischer rat thyroid (FRT) cells stably co-expressing YFP-H148Q
- assayConditions: commercial analogs; FRT cells with YFP and wildtype CFTR, 125 nM forskolin
Classes by % Activation: bottom range = under 30%, center range = from 30% up to 40%, top range = 40% and over

INSERT INTO measurements (smilesrepr, systemtested, group) VALUES
  ('CNc1nc(OCC(F)(F)F)nc(N(c2ccccc2)c2ccccc2)n1', 'human wild-type CFTR (Homo sapiens)', 'center range'),
  ('FC(F)(F)COc1nc(NCc2ccccc2)nc(Nc2ccc(OC(F)(F)F)cc2)n1', 'human wild-type CFTR (Homo sapiens)', 'bottom range'),
  ('FC(F)(F)COc1nc(NCc2ccccc2)nc(Nc2ccc(OC(F)(F)Cl)cc2)n1', 'human wild-type CFTR (Homo sapiens)', 'bottom range'),
  ('Cc1ccc(Nc2nc(OC(C(F)(F)F)C(F)(F)F)nc(N3CCCCC3)n2)cc1', 'human wild-type CFTR (Homo sapiens)', 'center range'),
  ('CN1CCN(c2nc(Nc3ccc(OC(F)(F)F)cc3)nc(OCC(F)(F)F)n2)CC1', 'human wild-type CFTR (Homo sapiens)', 'bottom range'),
  ('COc1ccc(Nc2nc(NC3CCCCC3)nc(OC(C(F)(F)F)C(F)(F)F)n2)cc1', 'human wild-type CFTR (Homo sapiens)', 'center range'),
  ('OCCNc1nc(Nc2ccc(OC(F)(F)Cl)cc2)nc(OCC(F)(F)F)n1', 'human wild-type CFTR (Homo sapiens)', 'bottom range'),
  ('FC(F)(F)COc1nc(N2CCCCC2)nc(N(c2ccccc2)c2ccccc2)n1', 'human wild-type CFTR (Homo sapiens)', 'bottom range'),
  ('FC(F)(F)C(Oc1nc(Nc2ccc(Cl)cc2)nc(N2CCOCC2)n1)C(F)(F)F', 'human wild-type CFTR (Homo sapiens)', 'center range'),
  ('CNc1nc(Nc2ccccc2C(F)(F)F)nc(OC(C(F)(F)F)C(F)(F)F)n1', 'human wild-type CFTR (Homo sapiens)', 'bottom range'),
  ('C=CCNc1nc(Nc2ccc(F)cc2)nc(OC(C(F)(F)F)C(F)(F)F)n1', 'human wild-type CFTR (Homo sapiens)', 'top range'),
  ('CNc1nc(Nc2ccc([N+](=O)[O-])cc2)nc(OCC(F)(F)C(F)F)n1', 'human wild-type CFTR (Homo sapiens)', 'top range'),
  ('C=CCNc1nc(Nc2ccc([N+](=O)[O-])cc2)nc(OCC)n1', 'human wild-type CFTR (Homo sapiens)', 'top range'),
  ('CC(C)(C)Nc1nc(Nc2ccc(OC(F)(F)F)cc2)nc(OCC(F)(F)F)n1', 'human wild-type CFTR (Homo sapiens)', 'bottom range'),
  ('CCOc1nc(Nc2ccc(I)cc2C)nc(NC2CCCCC2)n1', 'human wild-type CFTR (Homo sapiens)', 'bottom range'),
  ('COc1nc(NCCO)nc(Nc2ccc(I)cc2)n1', 'human wild-type CFTR (Homo sapiens)', 'bottom range'),
  ('FC(F)(F)COc1nc(Nc2ccc(OC(F)(F)Cl)cc2)nc(N2CCOCC2)n1', 'human wild-type CFTR (Homo sapiens)', 'center range'),
  ('FC(F)(F)COc1nc(Nc2ccc(OC(F)(F)F)cc2)nc(N2CCOCC2)n1', 'human wild-type CFTR (Homo sapiens)', 'center range'),
  ('C=CCNc1nc(Nc2cccc([N+](=O)[O-])c2)nc(OC(C(F)(F)F)C(F)(F)F)n1', 'human wild-type CFTR (Homo sapiens)', 'top range');
